System: barnyardgrass (Echinochloa crus-galli)
Assay: Test B pre/postemergence
Assay type: in vivo
Details: Preemergence, 125 g ai/ha; scale 0 to 100 (0 no effect, 100 complete control)
Binary classification by Plant response rating, Barnyardgrass, with 10 as an inclusive lower bound for Condition met; all other cases are Condition not met.

Observe how each entry below is paired with its result.
* COC(=O)Cc1nc(C2CC2)nc(N)c1Br | Condition met
* CC(C)COC(=O)c1nc(C2CC2)nc(N)c1Br | Condition met
* CCOC(=O)Cc1nc(-c2ccc(Cl)cc2)nc(N)c1Br | Condition not met

Turning now to a further record.
Exam item: decide whether the reported Plant response rating, Barnyardgrass for CCOC(=O)C(Cl)(Cl)c1nc(C2CC2)nc(N)c1Br is at least 10. Condition not met

###

Tested on: redroot pigweed (Amaranthus retroflexus)
Assay: Test A pre/postemergence
Assay type: in vivo
Details: Preemergence, 125 g ai/ha; 0 to 100 scale where 0 is no effect and 100 is complete control; approximately ten days
Please go through the items and note down their Plant response rating, Pigweed.
Give bare numbers.

• CC1(C)OCC(COC(=O)c2nc(C3CC3)nc(N)c2Cl)O1 (stereo not shown) = 80

Fill in Plant response rating, Pigweed for each of the 3 molecules listed.
1. COC(OC)c1nc(-c2ccc(I)cc2)nc(N)c1Cl
2. CCOC(=O)c1nc(-c2ccc(OC(F)(F)F)cc2)nc(N)c1Cl
3. Nc1nc(-c2ccc(Cl)cc2)nc(C(=O)[O-])c1Cl.[Na+]

1: 0; 2: 0; 3: 65

Fill in Plant response rating, Pigweed for each of the 5 molecules listed.
1. COC(=O)COc1nc(-c2ccc(Cl)cc2)nc(N)c1Cl
2. COC(=O)c1nc(-c2ccc(Br)cc2)nc(N)c1Br
3. Nc1nc(C2CC2)nc(C(=O)OCc2ccc(Cl)cc2)c1Cl
4. COC(=O)c1nc(-c2cccc(C)c2)nc(N)c1Cl
5. COCCOCCOC(=O)c1nc(C2CC2)nc(N)c1Cl

1: 0; 2: 0; 3: 80; 4: 25; 5: 80

###

Test system: lambsquarters (Chenopodium album)
Assay: Test C pre/postemergence
Assay type: in vivo
Settings: Chenopodium album, post-emergence, Postemergence, 125 g ai/ha; scale 0 to 100 (0 no effect, 100 complete control); read-out: Lambsquarters plant response rating
Please go through the items and note down their pest or weed control at 125 g/ha.
Give bare numbers, in %.

Take a look at these entries with their results.
• Nc1nc(C2CC2)nc(C(=O)OCc2ccccc2)c1Cl = 95
• CCOC(=O)c1nc(C2CC2)nc(N)c1Cl = 100

Fill in pest or weed control at 125 g/ha for each of the 2 compounds listed.
1. CCOC(=O)c1nc(C2CC2)nc(N)c1Br
2. Nc1nc(C2CC2)nc(C(=O)OCc2ccccc2)c1Br

1: 100; 2: 95

###

System: blackgrass (Alopecurus myosuroides)
Assay: Test B postemergence
Type: in vivo
Conditions: 125 g ai/ha, scale 0 to 100 (0 no effect, 100 complete control)
Description: […] At the same time, plants selected from these crop and weed species and also blackgrass (Alopecurus myosuroides) and wild oat (Avena fatua) were treated with postemergence applications of test chemicals formulated in the same manner. […] Treated plants and controls were maintained in a greenhouse for 13 to 15 days, after which time all species were compared to controls and visually evaluated. […]
Please go through the items and note down their Blackgrass plant response rating.
Answers are plain numbers.

Take a look at these entries with their results.
• Nc1nc(C2CC2)nc(C=NO)c1Br = 30
• CCOC(=O)c1nc(C2CC2)nc(NCCN(C)C)c1Br = 0
• Nc1nc(C2CC2)nc(C(=O)O)c1Cl = 70

Form field: reported Blackgrass plant response rating of COC(=O)c1nc(-c2ccc(C(F)(F)F)cc2)nc(N)c1Cl 30

###

Test system: redroot pigweed (Amaranthus retroflexus)
Experiment: Test A pre/postemergence
Format: in vivo
Settings: Preemergence, 500 g ai/ha; 0 to 100 scale where 0 is no effect and 100 is complete control; approximately ten days
outcome measure: Plant response rating, Pigweed
Numbers only.

Take a look at these entries with their results.
• Nc1nc(C2CC2)nc(C(=O)OCc2ccc(Cl)cc2)c1Cl = 90
• CCOC(=O)c1nc(-c2ccc(Cl)c(Cl)c2)nc(N)c1Br = 10

Here is the next item to consider.
Form field: reported Plant response rating, Pigweed of CCOC(=O)c1nc(-c2ccc(C(F)(F)F)cc2)nc(N)c1Cl 10

###

Please go through the items and note down their Crabgrass plant response rating.
Tested on: crabgrass (Digitaria sanguinalis)
Assay: Test C pre/postemergence
Type: in vivo
Settings: Postemergence, 125 g ai/ha; scale 0 to 100 (0 no effect, 100 complete control)
Answers are plain numbers.

Take a look at these entries with their results.
• CCCCOC(=O)c1nc(C2CC2)nc(N)c1Cl = 90
• Nc1nc(C2CC2)nc(C=NO)c1Br = 0

Form field: reported Crabgrass plant response rating of CNN=Cc1nc(C2CC2)nc(N)c1Br 65

###

Please go through the items and note down their Morningglory plant response rating.
Test system: morningglory (Ipomoea coccinea)
Experiment: Test B pre/postemergence
Format: in vivo
Conditions: Postemergence, 125 g ai/ha; scale 0 to 100 (0 no effect, 100 complete control)
Give bare numbers.

• COC(=O)c1nc(-c2ccc(F)cc2)nc(N)c1Br = 60
• COC(OC)c1nc(C2CC2)nc(N)c1F = 80

Here is the next item to consider.
Form field: reported Morningglory plant response rating of COC(=O)c1nc(-c2ccc(C(F)(F)F)cc2)nc(N)c1Cl 80

###

System: barnyardgrass (Echinochloa crus-galli)
Assay: Test E flooded paddy water application
Assay type: in vivo
Conditions: 125 g ai/ha; Flood; 21 days; scale 0 to 100 (0 no effect, 100 complete control)
outcome measure: Barnyardgrass plant response rating
Answers are plain numbers.

- CCOC(=O)c1nc(-c2ccc(C)cc2)nc(N)c1Cl [Compound 62]: 0
- Nc1nc(-c2ccc(Cl)cc2)nc(C(=O)OCc2ccccc2)c1Cl [Compound 118]: 0

Form field: reported Barnyardgrass plant response rating of CCOC(=O)c1nc(-c2ccc(Br)cc2)nc(N)c1Cl [Compound 94] 0

###

Test system: morningglory (Ipomoea spp.)
Experiment: Test A pre/postemergence
Type: in vivo
Settings: Preemergence, 500 g ai/ha; 0 to 100 scale where 0 is no effect and 100 is complete control; approximately ten days
outcome measure: Plant response rating, Morningglory

Fill in Plant response rating, Morningglory for each of the 2 compounds listed.
1. CCOC(=O)COc1nc(-c2ccc(Cl)cc2)nc(N)c1Cl [Compound 114]
2. CCOC(=O)c1nc(-c2ccc(C)c(C)c2)nc(N)c1Br [Compound 70]

1. 0
2. 0

Fill in Plant response rating, Morningglory for each of the 4 compounds listed.
1. Nc1nc(C2CC2)nc(C(=O)OCCCOC(=O)c2nc(C3CC3)nc(N)c2Cl)c1Cl [Compound 142]
2. CC(C)N.Nc1nc(C2CC2)nc(C(=O)O)c1Cl [Compound 144]
3. CCOC(=O)c1nc(-c2ccccc2F)nc(N)c1Cl [Compound 106]
4. CCOC(=O)c1nc(-c2ccc(C)c(C)c2)nc(N)c1Cl [Compound 71]

1: 95; 2: 95; 3: 0; 4: 0

Fill in Plant response rating, Morningglory for each of the 8 compounds listed.
1. COC(=O)c1nc(-c2cccc(C)c2)nc(N)c1Cl [Compound 97]
2. COC(=O)c1nc(-c2ccc(F)cc2)nc(N)c1Br [Compound 92]
3. CCCOC(=O)c1nc(-c2ccc(Cl)cc2)nc(N)c1Cl [Compound 105]
4. CCCOC(=O)c1nc(C2CC2)nc(N)c1Cl [Compound 75]
5. COC(=O)COc1nc(C2CC2)nc(N)c1Cl [Compound 112]
6. CCOC(=O)c1nc(-c2ccc(C(F)(F)F)cc2)nc(N)c1Br [Compound 60]
7. CCOC(=O)c1nc(-c2ccc(Cl)cc2Cl)nc(N)c1Br [Compound 67]
8. CCCCOC(=O)c1nc(C2CC2)nc(N)c1Cl [Compound 76]

0
0
0
100
10
0
0
100

Fill in Plant response rating, Morningglory for each of the 4 compounds listed.
1. CNc1nc(-c2ccc(Cl)cc2)nc(C(=O)OC)c1Cl [Compound 111]
2. CCOC(=O)c1nc(-c2ccc(C(F)(F)F)cc2)nc(N)c1Cl [Compound 104]
3. CCOC(OCC)c1nc(-c2ccc(I)cc2)nc(N)c1Cl [Compound 138]
4. CCOC(=O)c1nc(-c2ccc(Cl)c(Cl)c2)nc(N)c1Cl [Compound 73]

0
0
0
0

###

Please go through the items and note down their Foxtail, Giant plant response rating.
Test system: giant foxtail (Setaria faberii)
Assay: Test C pre/postemergence
Format: in vivo
Settings: Postemergence, 125 g ai/ha; scale 0 to 100 (0 no effect, 100 complete control)
Excerpt: […]
One number for each entry.

Take a look at these entries with their results.
• CCOC(=O)C(OC(C)=O)c1nc(C2CC2)nc(N)c1Br (stereo not shown) = 0
• CNN=Cc1nc(C2CC2)nc(N)c1Br = 0
• CCOC(=O)c1nc(-c2ccc(I)cc2)nc(N)c1Cl = 75
• CC(C)COC(=O)c1nc(C2CC2)nc(N)c1Br = 0
• COC(=O)c1nc(C2CC2)nc(N=CN(C)C)c1Br = 55
• CC(=O)NN=Cc1nc(C2CC2)nc(N)c1Br = 0

Fill in Foxtail, Giant plant response rating for each of the 2 compounds listed.
1. Nc1nc(C2CC2)nc(C=NO)c1Br
2. CCOC(=O)c1nc(-c2ccc(Cl)cc2)nc(N)c1Br

1: 0; 2: 0

Fill in Foxtail, Giant plant response rating for each of the 2 compounds listed.
1. CCCCOC(=O)c1nc(C2CC2)nc(N)c1Br
2. COC(=O)c1nc(-c2ccc(Cl)cc2)nc(N)c1Br

55
40

Source: patent US8802597B2
